Would you kindly list glycan array binding signal (z-score) for each of these binders?
target: Fuc(a1-2)Gal(b1-4)[Fuc(a1-3)]GalNAc(b1-3)Gal(b1-4)[Fuc(a1-3)]GlcNAc; experiment: glycan array binding signal (z-score within array); higher = stronger binding; details: glycan notation: IUPAC condensed, linker removed
The sample as a whole holds a higher share of the strongest signals than the screen did.
Number only, no unit.

Q. Please give the measured glycan array binding signal (z-score) for this binder: chitinase 3-like protein 2 (Homo sapiens) (protein) YKLVCYFTQWSQDRQEPGKFTPENIDPFLCSHLIYSFASIENNKVIIKDKSEVMLYQTINSLKTKNPKLKILLSIGGYLFGSKGFHPMVDSSTSRLEFINSIILFLRNHNFDGLDVSWIYPDQKENTHFTVLIHELAEAFQKDFTKSTKERLLLTAGVSAGRQMIDNSYQVEKLAKDLDFINLLSFDFHGSWEKPLITGHNSPLSKGWQDRGPSSYYNVEYAVGYWIHKGMPSEKVVMGIPTYGHSFTLASAETTVGAPASGPGAAGPITESSGFLAYYEICQFLKGAKITRLQDQQVPYAVKGNQWVGYDDVKSMETKVQFLKNLNLGGAMIWSIDMDDFTGKSCNQGPYPLVQAVKRSLGSL
A. -0.22

Q. Please give the measured glycan array binding signal (z-score) for this binder: DC SIGN CRD (Homo sapiens), Q9NNX6 (protein) QPCPWEWTFFQGNCYFMSNSQRNWHDSITACKEVGAQLVVIKSAEEQNFLQLQSSRSNRFTWMGLSDLNQEGTWQWVDGSPLLPSFKQYWNRGEPNNVGEEDCAEFSGNGWNDDKCNLAKFWICKKSAWSHPQFEK
A. 5.67

Q. Please give the measured glycan array binding signal (z-score) for this binder: AAA (Anguilla anguilla), Q7SIC1 (protein) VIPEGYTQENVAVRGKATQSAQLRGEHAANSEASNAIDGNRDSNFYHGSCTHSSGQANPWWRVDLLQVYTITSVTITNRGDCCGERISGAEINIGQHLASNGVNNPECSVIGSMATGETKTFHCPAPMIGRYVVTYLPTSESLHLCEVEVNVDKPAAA
A. -0.583

Q. Please give the measured glycan array binding signal (z-score) for this binder: MLTim-4 (Mus musculus), Q6U7R4 (protein) MSKGLLLLWLVTELWWLYLTPAASEDTIIGFLGQPVTLPCHYLSWSQSRNSMCWGKGSCPNSKCNAELLRTDGTRIISRKSTKYTLLGKVQFGEVSLTISNTNRGDSGVYCCRIEVPGWFNDVKKNVRLELRRAT
A. -0.799
